Test: Cytotoxicity against HepG2 cells using CellTiter Glo
Type: cell-based
Settings: human
Readout Kind: EC50

(Q) Returns the measured EC50 for the input molecule. Input: CC(=O)NC[C@H]1CN(c2ccc(N3CCO[C@]4(CCCOC4)C3)c(F)c2)C(=O)O1 [Compound 19b]
(A) > 30 µM

(Q) Now the same for CC(=O)NC[C@H]1CN(c2ccc(N3CCO[C@@]4(CCCOC4)C3)c(F)c2)C(=O)O1 [Compound 19a]
(A) > 30 µM

(Q) Now the same for CC(=O)NC[C@H]1CN(c2ccc(N3CCOCC3)c(F)c2)C(=O)O1 [Linezolid, linezolid, reference compound]
(A) > 30 µM
